assayed.system: T1, cynomolgus IL-1 beta (Sino Biological 90010-CNAE) (cynomolgus, UniProt P79182 117-268)
T1 sequence (looked up): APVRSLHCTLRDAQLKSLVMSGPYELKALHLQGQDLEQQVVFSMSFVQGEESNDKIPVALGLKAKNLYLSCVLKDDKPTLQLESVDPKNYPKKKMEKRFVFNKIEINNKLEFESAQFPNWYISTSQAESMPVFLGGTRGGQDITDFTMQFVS
assay.comment: SPR, Fab captured via anti-Fab antibody, cynomolgus IL-1beta injected, 1:1 Langmuir fit
Each entry below lists one item and its recorded koff value.
The reply should be a number in s⁻¹, with the unit left off.

// below: answered binders
{"binder": "bispecific anti-VEGF/anti-IL-1beta Fab fragment 1HVL2.3 (Fab, V domains shown, First expressed in E. coli TG1, later in HEK293) VH: EQLVESGGGLVKPGGSLRLSCAASGMVFSWNAMSWVRQAPGKGLEWVGSISPKGDHKYLNTKFIGRFTISRDNSKNTLYLQMNSLRAEDTAVYYCAKDIGFFDVWGQGTLVTVSS VL: AIYMHQEPSSLSASVGDRVTITCHGSYWLSNYLAWYQQKPGKAPKLLIYDASYRIIGVPSRFSGSGSHEDYTLTISSLQPEDFATYYCQQYRYHPYTFGHGTKVEIKR", "unit.of.measure": "s⁻¹", "result": 0.0182}
{"binder": "bispecific anti-VEGF/anti-IL-1beta Fab fragment 1HVL5.15 (Fab, V domains shown) VH: DETLVESGGGLVKPGGSLRLSCAAEGMVFKWNDMSWVRQAPGKGLEWVGSISKKGDHKYLNTKFIGRFTISRDNEKDTLYLQMNSLRAEDTAVYYCAKDVGFFDIWGQGTLVTVSS VL: AIYMHQEPSSLSASVGDRVTITCHGSYWLSSLMAWYQQKPGKAPKLLIYDAKYKHLGVPSRFSGSGSHEDYTLTISSLQPEDFATYYCQQYRYHPYTFGHGTKVEIKR", "unit.of.measure": "s⁻¹", "result": 0.000118}
{"binder": "bispecific anti-VEGF/anti-IL-1beta Fab fragment 1HVL12.85 (Fab, V domains shown) VH: DEQLVESGGGLVKPGGSLRLSCAAEGMVFKWNDMSWVRQAPGKGLEWVGSISKKGDHKYLNTKFIGRFTISRDNEKDTLYLQMNSLRAEDTAVYYCAKDVGFFDIWGQGTLVTVSS VL: AIYMHQEPSSLSASVGDRVTITCHGSYWLSSLVAWYQQKPGKAPKLLIYDAKYKHLGVPSRFSGSKEDQEFTLTISSLQPEDFATYYCQQYRYHPYTFGHGTKVEIKR", "unit.of.measure": "s⁻¹", "result": "6.54e-05"}

# evaluate next
**Q:** Could you share which koff value was measured for bispecific anti-VEGF/anti-IL-1beta Fab fragment RO7200394 (Fab, V domains shown, same variable domains as 1HVL12.85; also called R07200394) VH: DEQLVESGGGLVKPGGSLRLSCAAEGMVFKWNDMSWVRQAPGKGLEWVGSISKKGDHKYLNTKFIGRFTISRDNEKDTLYLQMNSLRAEDTAVYYCAKDVGFFDIWGQGTLVTVSS VL: AIYMHQEPSSLSASVGDRVTITCHGSYWLSSLVAWYQQKPGKAPKLLIYDAKYKHLGVPSRFSGSKEDQEFTLTISSLQPEDFATYYCQQYRYHPYTFGHGTKVEIKR ?
**A:** 7.94e-05
